molecular target: human LTBR on cells (human, UniProt P36941 31-435); assay: cell-based or functional assay
Lab note: anything with NFκB luc, 14.64 ng/ml, w/o x linker at or over 20000 RLU counts as YES; the rest go in NO.

binder	label class
P1AF0080 (antibody, human IgG1, kappa, L234A L235A, V domains shown, human IgG1 PG LALA; from transgenic rabbit immunization; also called LTBR (0080)) VH: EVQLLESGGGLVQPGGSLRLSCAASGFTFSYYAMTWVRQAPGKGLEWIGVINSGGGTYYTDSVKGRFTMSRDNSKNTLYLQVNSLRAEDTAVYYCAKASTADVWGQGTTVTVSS VL: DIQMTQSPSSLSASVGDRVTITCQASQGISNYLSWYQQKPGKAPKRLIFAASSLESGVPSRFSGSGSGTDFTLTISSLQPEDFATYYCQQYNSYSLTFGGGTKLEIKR	NO

Can P1AF0079 (antibody, human IgG1, kappa, L234A L235A, V domains shown, human IgG1 PG LALA; from transgenic rabbit immunization; also called LTBR (0079)) VH: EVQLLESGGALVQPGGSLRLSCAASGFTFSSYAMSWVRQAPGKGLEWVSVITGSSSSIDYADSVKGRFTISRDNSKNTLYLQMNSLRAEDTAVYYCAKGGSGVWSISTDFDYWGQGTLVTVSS VL: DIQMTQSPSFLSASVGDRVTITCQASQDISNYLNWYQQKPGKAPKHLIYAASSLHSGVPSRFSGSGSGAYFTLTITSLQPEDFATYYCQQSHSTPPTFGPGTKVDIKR be said to have NFκB luc, 14.64 ng/ml, w/o x linker at or above 20000 RLU?
NO

Given P1AF0064 (antibody, human IgG1, kappa, L234A L235A, V domains shown, human IgG1 PG LALA constant regions; V domains from rat immunization; also called LTBR (0064)) VH: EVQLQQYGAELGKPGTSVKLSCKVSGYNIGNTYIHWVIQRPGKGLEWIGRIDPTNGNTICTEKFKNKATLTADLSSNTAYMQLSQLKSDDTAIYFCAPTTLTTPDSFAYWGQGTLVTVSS VL: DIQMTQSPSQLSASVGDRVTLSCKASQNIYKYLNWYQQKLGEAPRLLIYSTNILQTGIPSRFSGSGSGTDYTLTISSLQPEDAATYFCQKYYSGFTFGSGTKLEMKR , state whether its NFκB luc, 14.64 ng/ml, w/o x linker is at least 20000 RLU.
YES
